Target: T1, Human BSSL (bile salt-stimulated lipase), native (human, UniProt P19835 21-753)
T1 sequence: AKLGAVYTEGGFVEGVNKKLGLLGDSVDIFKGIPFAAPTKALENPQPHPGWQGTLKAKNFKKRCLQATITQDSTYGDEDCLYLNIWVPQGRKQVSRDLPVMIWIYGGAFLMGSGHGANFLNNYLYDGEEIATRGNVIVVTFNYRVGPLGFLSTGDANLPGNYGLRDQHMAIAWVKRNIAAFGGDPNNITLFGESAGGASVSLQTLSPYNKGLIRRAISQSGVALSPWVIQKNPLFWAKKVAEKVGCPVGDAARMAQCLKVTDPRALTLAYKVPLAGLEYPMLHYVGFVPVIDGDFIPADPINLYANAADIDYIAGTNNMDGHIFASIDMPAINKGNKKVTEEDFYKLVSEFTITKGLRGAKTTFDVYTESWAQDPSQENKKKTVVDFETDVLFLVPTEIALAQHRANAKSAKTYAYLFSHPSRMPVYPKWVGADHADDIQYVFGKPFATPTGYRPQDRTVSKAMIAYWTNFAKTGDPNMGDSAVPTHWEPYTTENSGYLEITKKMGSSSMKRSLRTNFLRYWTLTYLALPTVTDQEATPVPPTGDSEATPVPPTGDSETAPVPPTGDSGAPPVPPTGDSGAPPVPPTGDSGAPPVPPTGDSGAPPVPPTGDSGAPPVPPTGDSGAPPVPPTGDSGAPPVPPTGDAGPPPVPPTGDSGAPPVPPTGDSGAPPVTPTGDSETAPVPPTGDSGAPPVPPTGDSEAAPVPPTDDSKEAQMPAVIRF
Assay: cell-based or functional assay
BSSL hydrolysis of triglycerides, relative value (no antibody = 100%); 6.0 ug antibody listing for selected binders.
reported_property: BSSL hydrolysis of triglycerides, relative value (no antibody = 100%); 6.0 ug antibody

binder: S-SL048-106 hIgG4 S228P (antibody, V domains shown, also called mAb106) VH: QVQLVQSGAEVKKPGASVKVSCKASGYTFTSYNMHWVRQAPGQGLEWIGVIYPGDGSTSYNQKFQGRVTMTRDTSTSTVYMELSSLRSEDTAVYYCARDYYGSSPLGYWGQGTLVTVSS VL: DIQMTQSPSSLSASVGDRVTITCSASSSISYMNWYQQKPGKAPKLLIYATSKLPSGVPSRFSGSGSGTDFTLTISSLQPEDFATYYCHQRSSTPTFGQGTKLEIKR
recorded_value: 104
--
binder: S-SL048-11 hIgG4 S228P (antibody, V domains shown, also called clone 11; mAb11) VH: QVQLVQSGAEVKKPGASVKVSCKASGYTFTSYNMHWVRQAPGQGLEWMGVIYPGDGATSYAQKFKGRVTMTRDTSTSTVYMELSSLRSEDTAVYYCARDYYGSSPLGYWGQGTLVTVSS VL: DIQMTQSPSSLSASVGDRVTITCSASPSISYMNWYQQKPGKAPKLLIYATSSLASGVPSRFSGSGSGTDFTLTISSLQPEDFATYYCHQRSSYPTFGQGTKLEIKR
recorded_value: 113
--
binder: S-SL048-116 hIgG4 S228P (antibody, V domains shown, also called mAb116) VH: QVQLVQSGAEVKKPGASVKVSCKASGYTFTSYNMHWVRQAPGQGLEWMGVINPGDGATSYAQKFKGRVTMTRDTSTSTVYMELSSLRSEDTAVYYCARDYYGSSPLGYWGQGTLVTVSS VL: DIQMTQSPSSLSASVGDRVTITCRASPSISYMNWYQQKPGKAPKLLIYATSSLASGVPSRFSGSGSGTDFTLTISSLQPEDFATYYCHQRSSSPTFGQGTKLEIKR
recorded_value: 108
--
binder: S-SL048-118 hIgG4 S228P (antibody, V domains shown, also called clone 118; mAb118) VH: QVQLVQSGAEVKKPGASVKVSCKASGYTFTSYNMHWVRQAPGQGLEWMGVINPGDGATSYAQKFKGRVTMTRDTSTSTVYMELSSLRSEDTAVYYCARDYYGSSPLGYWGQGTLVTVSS VL: DIQMTQSPSSLSASVGDRVTITCSASPSISYMNWYQQKPGKAPKLLIYATSSLPSGVPSRFSGSGSGTDFTLTISSLQPEDFATYYCHQRSSSPTFGQGTKLEIKR
recorded_value: 119
--
binder: S-SL048-46 hIgG4 S228P (antibody, V domains shown, also called clone 46; mAb46) VH: QVQLVQSGAEVKKPGASVKVSCKASGYTFTSYNMHWVRQAPGQGLEWMGVINPGDGATSYNQKFQGRVTMTRDTSTSTVYMELSSLRSEDTAVYYCARDYYGSSPLGYWGQGTLVTVSS VL: DIQMTQSPSSLSASVGDRVTITCRASSSISYLNWYQQKPGKAPKLLIYAASSLASGVPSRFSGSGSGTDFTLTISSLQPEDFATYYCHQRSSSPTFGQGTKLEIKR
recorded_value: 126
